target-desc: Short transient receptor potential channel 4 (Mus musculus) (UniProt Q9QUQ5)
Sequence (Q9QUQ5 whole entry, looked up): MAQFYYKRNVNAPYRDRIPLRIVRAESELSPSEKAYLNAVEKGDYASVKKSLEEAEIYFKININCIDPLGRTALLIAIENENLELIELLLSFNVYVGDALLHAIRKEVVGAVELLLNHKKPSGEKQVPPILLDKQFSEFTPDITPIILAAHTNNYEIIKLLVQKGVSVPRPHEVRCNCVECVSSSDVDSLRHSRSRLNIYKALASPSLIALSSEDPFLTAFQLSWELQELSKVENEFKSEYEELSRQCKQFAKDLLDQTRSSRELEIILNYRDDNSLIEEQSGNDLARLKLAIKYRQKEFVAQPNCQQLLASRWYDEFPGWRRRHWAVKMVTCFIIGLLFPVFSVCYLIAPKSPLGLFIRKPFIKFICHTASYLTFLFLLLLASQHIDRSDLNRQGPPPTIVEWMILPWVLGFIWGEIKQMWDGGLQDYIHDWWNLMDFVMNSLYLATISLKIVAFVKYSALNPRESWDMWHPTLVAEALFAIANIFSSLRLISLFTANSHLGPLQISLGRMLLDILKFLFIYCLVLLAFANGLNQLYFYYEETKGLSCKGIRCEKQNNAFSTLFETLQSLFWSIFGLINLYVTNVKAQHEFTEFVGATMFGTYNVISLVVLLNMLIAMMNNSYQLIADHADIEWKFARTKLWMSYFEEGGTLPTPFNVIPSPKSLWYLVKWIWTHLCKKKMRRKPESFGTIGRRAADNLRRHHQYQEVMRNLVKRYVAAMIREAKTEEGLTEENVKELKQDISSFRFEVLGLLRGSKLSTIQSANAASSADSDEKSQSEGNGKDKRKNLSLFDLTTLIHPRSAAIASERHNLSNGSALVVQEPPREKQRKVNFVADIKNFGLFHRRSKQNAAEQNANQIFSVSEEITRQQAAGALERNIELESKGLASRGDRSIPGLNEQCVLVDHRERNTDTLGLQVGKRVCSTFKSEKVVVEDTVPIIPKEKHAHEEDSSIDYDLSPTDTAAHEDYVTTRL
procedure-summary: blockers of DAMGO-evoked TRPC4 calcium flux – cell-based, second round, Fluo4, HEK293 TRPC4beta/mu-opioid, 1 µM, confirmation (AID 2637)
conditions-used: at 1 µM
Calls of active or inactive are those of the source.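 How the source made its calls: active means calcium signal ratio cut to more than 3 SD under the fully stimulated control mean yet still positive, in both repeats and the primary screen; inactive means the rest.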
Choose one outcome from this list and give only that: YES for active, NO for inactive

**Query** What was the test verdict on "CC[n+]1c(/C=C/c2ccc(OC(C)=O)c(OC)c2)ccc2ccccc21" ?
**Result** NO

**Query** What was the test verdict on "Clc1cccc(COn2c(-c3ccc(Cl)cc3Cl)nc3ncccc32)c1" ?
**Result** YES

**Query** What was the test verdict on "Cn1c(=O)n(CCCO)c(=O)c2c1nc1n2CCCN1Cc1ccccc1" ?
**Result** YES

**Query** What was the test verdict on CC(C)c1ccc(C(C)NCCS(=O)(=O)c2ccc(Br)cc2)cc1 (stereo not given) ?
**Result** NO

**Query** What was the test verdict on "O=C(CSc1nnc(-c2ccccc2)o1)c1ccc2c(c1)OCCO2" ?
**Result** NO

**Query** What was the test verdict on "CC(C)CCn1c(Sc2nc3ccccc3o2)nc2c1c(=O)[nH]c(=O)n2C" ?
**Result** NO

**Query** What was the test verdict on "Cn1c(CN2CCN(c3ccccc3NS(C)(=O)=O)CC2)nc2ccccc21" ?
**Result** NO

**Query** What was the test verdict on CCOC(=O)c1c(-c2cccc(C)c2)csc1NC(=O)C1CC=CCC1C(=O)O (stereo not given) ?
**Result** NO

**Query** What was the test verdict on "Cn1c(=O)c2c(nc(CN3CCc4ccccc4C3)n2Cc2ccc(F)cc2)n(C)c1=O" ?
**Result** NO

**Query** What was the test verdict on COc1ccc(C2C(O)C(c3c[nH]c4ccccc34)=NN2C(=O)CCl)cc1 (stereo not given) ?
**Result** NO

---

target-desc: Potassium voltage-gated channel subfamily KQT member 2 (Rattus norvegicus) (UniProt O88943)
Sequence (O88943 whole entry, looked up): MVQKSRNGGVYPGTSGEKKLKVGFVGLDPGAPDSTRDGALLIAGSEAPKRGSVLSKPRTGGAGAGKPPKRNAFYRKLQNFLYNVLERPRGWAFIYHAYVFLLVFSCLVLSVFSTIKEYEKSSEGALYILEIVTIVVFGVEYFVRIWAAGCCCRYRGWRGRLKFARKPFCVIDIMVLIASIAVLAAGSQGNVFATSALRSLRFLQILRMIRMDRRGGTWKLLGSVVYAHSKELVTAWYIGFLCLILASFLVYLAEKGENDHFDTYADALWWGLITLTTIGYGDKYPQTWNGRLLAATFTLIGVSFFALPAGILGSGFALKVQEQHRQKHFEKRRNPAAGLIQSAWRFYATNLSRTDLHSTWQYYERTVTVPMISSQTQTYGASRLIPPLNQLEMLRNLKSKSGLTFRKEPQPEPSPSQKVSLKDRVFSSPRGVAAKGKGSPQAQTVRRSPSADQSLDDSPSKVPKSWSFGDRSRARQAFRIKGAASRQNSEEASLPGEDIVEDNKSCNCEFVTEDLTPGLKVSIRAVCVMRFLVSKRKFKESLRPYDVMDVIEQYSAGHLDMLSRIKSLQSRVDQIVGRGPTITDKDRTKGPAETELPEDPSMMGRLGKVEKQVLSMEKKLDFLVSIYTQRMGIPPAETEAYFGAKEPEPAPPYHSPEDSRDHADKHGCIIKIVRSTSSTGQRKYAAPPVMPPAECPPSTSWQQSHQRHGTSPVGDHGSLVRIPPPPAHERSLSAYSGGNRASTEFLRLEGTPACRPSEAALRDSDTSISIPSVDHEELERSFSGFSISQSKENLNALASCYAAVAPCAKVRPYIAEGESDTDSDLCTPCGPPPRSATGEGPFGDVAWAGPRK
procedure-summary: KCNQ2 potassium channel activity enhancers – cell-based, CHO, FluxOR thallium flux, duplicate, confirmation (AID 2287);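 further: peak minus minimum thallium fluorescence divided by baseline after K/Tl stimulus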
conditions-used: CHO-KCNQ2 cells, FluxOR thallium flux fluorescence; at 10 µM
This is one part of the list. Active and inactive are the calls of the source.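 The calls were made as follows: active = fluorescence ratio rising 3 SD or more over the vehicle control mean in both replicates, plus primary screen hit; inactive = the rest.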
Choose one outcome from this list and give only that: active, inactive

**Query** What was the test verdict on "Cc1ccc(C(=O)Nc2nnc(C3=COCCO3)o2)cc1C" ?
**Result** active

**Query** What was the test verdict on "CCOC(=O)c1sc(=S)n2c1[nH]c(=O)c1ccc(C(=O)OC)cc12" ?
**Result** active

**Query** What was the test verdict on "Cc1cccc(NC(=S)NC(=O)c2ccc(Br)o2)c1" ?
**Result** active

**Query** What was the test verdict on "FC(F)(F)c1cccc(NC(=S)Nc2cccc(Cl)c2)c1" ?
**Result** inactive

**Query** What was the test verdict on "S=C(NCc1ccc(Cl)cc1)NC12CC3CC(CC(C3)C1)C2" ?
**Result** active

**Query** What was the test verdict on "Cc1cc(C(=O)OCC(=O)Nc2ccc(F)c(F)c2)c(C)o1" ?
**Result** active

**Query** What was the test verdict on CCc1ccccc1NC(=O)[C@@H]1CCC(=O)N1C1OC(=O)c2c1ccc(OC)c2OC (stereo partly specified) ?
**Result** inactive

**Query** What was the test verdict on COc1cccc(NC(=O)C2C(c3ccccc3)C2(Cl)Cl)c1 (stereo unspecified) ?
**Result** active

**Query** What was the test verdict on "Cc1ccc(/C=N/NC(=O)c2cc3ccccc3cc2O)o1" ?
**Result** active

**Query** What was the test verdict on "O=C(NCc1ccc2c(c1)OCO2)C12CC3CC(CC(C3)C1)C2" ?
**Result** active

**Query** What was the test verdict on "O=c1c2cc(Br)ccc2nc(-c2cccc(Cl)c2)n1O" ?
**Result** active
